Measured on: IKZF2 (Homo sapiens (Human), UniProt Q96SW2+Q9UKS7)
Sequence (Q9UKS7 whole entry): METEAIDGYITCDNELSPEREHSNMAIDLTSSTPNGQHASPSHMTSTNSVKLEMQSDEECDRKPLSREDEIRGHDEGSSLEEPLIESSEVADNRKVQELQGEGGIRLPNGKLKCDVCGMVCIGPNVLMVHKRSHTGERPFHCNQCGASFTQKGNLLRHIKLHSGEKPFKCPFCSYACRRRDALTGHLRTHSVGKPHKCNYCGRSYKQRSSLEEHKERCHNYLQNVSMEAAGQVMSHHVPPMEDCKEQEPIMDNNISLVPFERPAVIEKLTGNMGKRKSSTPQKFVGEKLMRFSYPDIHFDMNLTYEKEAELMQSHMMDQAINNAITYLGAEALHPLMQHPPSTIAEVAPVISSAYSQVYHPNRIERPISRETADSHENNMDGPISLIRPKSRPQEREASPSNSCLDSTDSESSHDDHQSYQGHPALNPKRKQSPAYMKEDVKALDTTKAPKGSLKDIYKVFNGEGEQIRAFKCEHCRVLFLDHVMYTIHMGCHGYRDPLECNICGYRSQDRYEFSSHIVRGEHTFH
Sequence (Q96SW2 whole entry): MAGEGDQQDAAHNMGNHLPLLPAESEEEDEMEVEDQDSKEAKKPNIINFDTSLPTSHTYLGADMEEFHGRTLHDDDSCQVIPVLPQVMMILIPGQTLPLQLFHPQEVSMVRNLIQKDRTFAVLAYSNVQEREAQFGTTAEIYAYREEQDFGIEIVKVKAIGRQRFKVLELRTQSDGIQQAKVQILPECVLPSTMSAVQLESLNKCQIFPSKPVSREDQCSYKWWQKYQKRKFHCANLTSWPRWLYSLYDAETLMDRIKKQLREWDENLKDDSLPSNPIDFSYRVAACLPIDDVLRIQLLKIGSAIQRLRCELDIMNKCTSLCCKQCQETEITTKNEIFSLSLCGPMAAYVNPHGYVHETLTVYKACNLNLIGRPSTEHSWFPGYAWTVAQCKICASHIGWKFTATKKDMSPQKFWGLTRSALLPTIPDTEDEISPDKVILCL
Sequence (Q16531 whole entry partner): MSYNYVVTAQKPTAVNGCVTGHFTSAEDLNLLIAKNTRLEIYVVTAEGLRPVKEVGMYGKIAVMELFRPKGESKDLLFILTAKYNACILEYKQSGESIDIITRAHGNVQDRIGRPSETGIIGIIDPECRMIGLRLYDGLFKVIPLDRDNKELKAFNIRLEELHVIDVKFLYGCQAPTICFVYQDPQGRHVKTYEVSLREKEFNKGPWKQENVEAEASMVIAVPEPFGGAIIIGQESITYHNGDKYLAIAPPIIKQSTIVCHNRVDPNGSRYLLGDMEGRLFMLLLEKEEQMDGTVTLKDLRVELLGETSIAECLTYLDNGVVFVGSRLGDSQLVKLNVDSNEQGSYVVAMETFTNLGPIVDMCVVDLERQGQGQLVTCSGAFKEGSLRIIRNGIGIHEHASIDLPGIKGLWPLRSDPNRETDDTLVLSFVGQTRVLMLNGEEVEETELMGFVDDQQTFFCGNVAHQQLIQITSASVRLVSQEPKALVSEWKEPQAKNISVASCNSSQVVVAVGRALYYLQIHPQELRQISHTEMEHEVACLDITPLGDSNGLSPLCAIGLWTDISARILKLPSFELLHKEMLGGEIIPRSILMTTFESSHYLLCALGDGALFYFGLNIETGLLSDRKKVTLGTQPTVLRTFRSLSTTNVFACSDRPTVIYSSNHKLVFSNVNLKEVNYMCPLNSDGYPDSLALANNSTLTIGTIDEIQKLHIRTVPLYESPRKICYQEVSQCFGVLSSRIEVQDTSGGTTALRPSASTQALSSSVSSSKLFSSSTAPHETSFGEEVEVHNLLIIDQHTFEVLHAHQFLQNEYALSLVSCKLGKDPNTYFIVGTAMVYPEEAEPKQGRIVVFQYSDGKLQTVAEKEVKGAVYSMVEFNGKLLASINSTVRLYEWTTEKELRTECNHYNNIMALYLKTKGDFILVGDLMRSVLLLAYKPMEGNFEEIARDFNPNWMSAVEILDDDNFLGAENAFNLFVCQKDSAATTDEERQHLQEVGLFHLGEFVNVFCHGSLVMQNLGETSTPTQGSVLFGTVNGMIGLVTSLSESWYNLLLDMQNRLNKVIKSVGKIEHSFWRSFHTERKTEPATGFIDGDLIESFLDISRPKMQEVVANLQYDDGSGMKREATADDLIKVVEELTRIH
Assay details: IKZF2 HiBiT Assay (Jurkat-IKZF2-HiBiT cell line)
Type: cell-based
Condition info: Jurkat-IKZF2-HiBiT cells, 24 hours; read-out: HiBit assay degradation analysis Dmax
Entries and their measured Dmax follow.

Compound	Measurement
O=C1CCC(N2Cc3c(ccc4c3OCC43CCN(Cc4cnn(Cc5ccc(Cl)cc5)c4)CC3)C2=O)C(=O)N1 (centres unmarked) [Compound A241]	60 to 80%
Cc1ccc(CN2CCC3(CCOc4c3ccc3c4CN(C4CCC(=O)NC4=O)C3=O)CC2)cc1 (centres unmarked) [Compound A12]	< 40%
O=C1CCC(N2Cc3c(ccc4c3OCC43CCN(Cc4nn(CC5CCCCC5)c5ccccc45)CC3)C2=O)C(=O)N1 (centres unmarked) [Compound A329]	60 to 80%
O=C1CCC(N2Cc3c(ccc4c3OCC43CCN(Cc4cccc5cc[nH]c45)CC3)C2=O)C(=O)N1 (centres unmarked) [Compound A59]	> 80%
CCc1ccc(CN2CCC3(CCOc4c3ccc3c4CN(C4CCC(=O)NC4=O)C3=O)CC2)cc1 (centres unmarked) [Compound A11]	40 to 60%

Report the value of Dmax obtained on IKZF2 (Homo sapiens (Human), UniProt Q96SW2+Q9UKS7) for O=C1CC[C@H](N2Cc3c(ccc4c3OCC43CCN(Cc4cnn(S(=O)(=O)c5cccc(Cl)c5F)c4)CC3)C2=O)C(=O)N1 [Compound A357] . 60 to 80%

Provide the reported Dmax (system: IKZF2 (Homo sapiens (Human), UniProt Q96SW2+Q9UKS7)) for Cn1cc2c(CN3CCC4(CC3)COc3c4ccc4c3CN(C3CCC(=O)NC3=O)C4=O)cccc2n1 (centres unmarked) [Compound A67] 60 to 80%

Look up and report Dmax, with IKZF2 (Homo sapiens (Human), UniProt Q96SW2+Q9UKS7) as system, for O=C1CC[C@H](N2Cc3c(ccc4c3OCC43CCN(Cc4cnn(CC5(c6ccccc6)CC5)c4)CC3)C2=O)C(=O)N1 [Compound A348] 60 to 80%

// fetch Dmax for O=C1CCC(N2Cc3c(ccc4c3OCC43CCN(Cc4cccc(Br)c4)CC3)C2=O)C(=O)N1 (centres unmarked) [Compound A91] ; system: IKZF2 (Homo sapiens (Human), UniProt Q96SW2+Q9UKS7) 60 to 80%

Given O=C1CCC(N2Cc3c(ccc4c3OCC43CCN(Cc4ccn5nccc5c4)CC3)C2=O)C(=O)N1 (centres unmarked) [Compound A80] , report its Dmax on IKZF2 (Homo sapiens (Human), UniProt Q96SW2+Q9UKS7). < 40%

Give Dmax only, for O=C1CCC(N2Cc3c(ccc4c3OCC43CCN(Cc4cnn(Cc5ccccc5)c4)CC3)C2=O)C(=O)N1 (centres unmarked) [Compound A209] , using IKZF2 (Homo sapiens (Human), UniProt Q96SW2+Q9UKS7) data. 60 to 80%

Fill in Dmax for O=C1CCC(N2Cc3c(ccc4c3OCC43CCN(Cc4cccc(Oc5ccccc5)c4)CC3)C2=O)C(=O)N1 (centres unmarked) [Compound A86] tested with IKZF2 (Homo sapiens (Human), UniProt Q96SW2+Q9UKS7). 40 to 60%

Report Dmax from IKZF2 (Homo sapiens (Human), UniProt Q96SW2+Q9UKS7) testing of O=C1CC[C@H](N2Cc3c(ccc4c3OCC43CCN(Cc4cnn(S(=O)(=O)c5ccc(Cl)cc5)c4)CC3)C2=O)C(=O)N1 [Compound A352] < 40%

----------
Measured on: IKZF2 (Homo sapiens (Human), UniProt Q96SW2+Q9UKS7)
Assay details: IKZF2 HiBiT Assay (Jurkat-IKZF2-HiBiT cell line)
Format: cell-based
Condition info: Jurkat-IKZF2-HiBiT cells, 24 hours; read-out: HiBit assay degradation analysis DC50
Outcome measure: DC50

Below: 3 compounds and their reported DC50.
Compound	Measurement
O=C1CCC(N2Cc3c(ccc4c3OCC43CCN(Cc4ccc5ccncc5c4)CC3)C2=O)C(=O)N1 (stereo not drawn)	200 to 500 nM
O=C1CCC(N2Cc3c(ccc4c3OCC43CCN(Cc4cccc5[nH]cnc45)CC3)C2=O)C(=O)N1 (stereo not drawn)	> 500 nM
O=C1CCC(N2Cc3c(ccc4c3OCC43CCN(Cc4cccc(NS(=O)(=O)c5ccccc5)c4)CC3)C2=O)C(=O)N1 (stereo not drawn)	> 500 nM

Respond only with DC50 recorded for O=C1CCC(N2Cc3c(ccc4c3OCC43CCN(Cc4cccc5ncccc45)CC3)C2=O)C(=O)N1 (stereo not drawn) 50 to 200 nM

For the compound O=C1CCC(N2Cc3c(ccc4c3OCC43CCN(Cc4cnn5c4CCCC5)CC3)C2=O)C(=O)N1 (stereo not drawn) , give its measured DC50 value. 200 to 500 nM

Provide measured DC50 value, entry: O=C1CCC(N2Cc3c(ccc4c3OCC43CCN(Cc4n[nH]c5ccccc45)CC3)C2=O)C(=O)N1 (stereo not drawn) > 500 nM

Identify DC50 associated with the compound O=C1CCC(N2Cc3c(ccc4c3OCC43CCN(Cc4ccnc5[nH]ccc45)CC3)C2=O)C(=O)N1 (stereo not drawn) > 500 nM

----------
Measured on: IKZF2 (Homo sapiens (Human), UniProt Q96SW2+Q9UKS7)
Assay details: IKZF2 HiBiT Assay (Jurkat-IKZF2-HiBiT cell line)
Type: cell-based
Condition info: Jurkat-IKZF2-HiBiT cells, 24 hours; read-out: HiBit assay degradation analysis Dmax
Outcome measure: Dmax

Molecule	Measured on	Outcome measure	Measurement
Cn1nc(CN2CCC3(CC2)COc2c3ccc3c2CN(C2CCC(=O)NC2=O)C3=O)c2ccccc21 (stereo not shown)	IKZF2 (Homo sapiens (Human), UniProt Q96SW2+Q9UKS7)	Dmax	40 to 60%
O=C1CCC(N2Cc3c(ccc4c3OCC43CCN(Cc4nncn4-c4ccccc4)CC3)C2=O)C(=O)N1 (stereo not shown)	IKZF2 (Homo sapiens (Human), UniProt Q96SW2+Q9UKS7)	Dmax	< 40%
O=C1CCC(N2Cc3c(ccc4c3OCC43CCN(Cc4cnn(-c5ccc(Cl)cc5)c4)CC3)C2=O)C(=O)N1 (stereo not shown)	IKZF2 (Homo sapiens (Human), UniProt Q96SW2+Q9UKS7)	Dmax	60 to 80%
O=C1CC[C@H](N2Cc3c(ccc4c3OCC43CCN(Cc4cccc(C5CCOC5)c4)CC3)C2=O)C(=O)N1 (stereo partly shown)	IKZF2 (Homo sapiens (Human), UniProt Q96SW2+Q9UKS7)	Dmax	40 to 60%
O=C1CCC(N2Cc3c(ccc4c3OCC43CCN(Cc4cccc5c4OCC5)CC3)C2=O)C(=O)N1 (stereo not shown)	IKZF2 (Homo sapiens (Human), UniProt Q96SW2+Q9UKS7)	Dmax	40 to 60%

Send back IKZF2 (Homo sapiens (Human), UniProt Q96SW2+Q9UKS7) Dmax of O=C1CCC(N2Cc3c(ccc4c3OCC43CCN(Cc4ccc5c(c4)C(=O)NC5)CC3)C2=O)C(=O)N1 (stereo not shown) only. 60 to 80%

For IKZF2 (Homo sapiens (Human), UniProt Q96SW2+Q9UKS7), give Dmax of the listed molecule: O=C1CCC(N2Cc3c(ccc4c3OCC43CCN(Cc4cccc(CO)c4)CC3)C2=O)C(=O)N1 (stereo not shown) 60 to 80%

Given [2H]C([2H])([2H])n1ccc(-c2cccc(CN3CCC4(CC3)COc3c4ccc4c3CN([C@H]3CCC(=O)NC3=O)C4=O)c2)n1 , report its Dmax on IKZF2 (Homo sapiens (Human), UniProt Q96SW2+Q9UKS7). 60 to 80%

Give Dmax for O=C1CCC(N2Cc3c(ccc4c3OCC43CCN(Cc4cccc(-n5ccnc5)c4)CC3)C2=O)C(=O)N1 (stereo not shown) tested on IKZF2 (Homo sapiens (Human), UniProt Q96SW2+Q9UKS7). 40 to 60%

State Dmax on IKZF2 (Homo sapiens (Human), UniProt Q96SW2+Q9UKS7). Entry: Cn1nccc1-c1cccc(CN2CCC3(CC2)COc2c3ccc3c2CN(C2CCC(=O)NC2=O)C3=O)c1 (stereo not shown) 40 to 60%

State Dmax (IKZF2 (Homo sapiens (Human), UniProt Q96SW2+Q9UKS7)) of Cc1nn(C)cc1-c1cccc(CN2CCC3(CC2)COc2c3ccc3c2CN([C@H]2CCC(=O)NC2=O)C3=O)c1 . 60 to 80%

Enter measured Dmax, system IKZF2 (Homo sapiens (Human), UniProt Q96SW2+Q9UKS7), for the molecule shown: O=C1CCC(N2Cc3c(ccc4c3OCC43CCN(Cc4cnn(S(=O)(=O)c5ccccc5)c4)CC3)C2=O)C(=O)N1 (stereo not shown) 40 to 60%

Give Dmax; test system IKZF2 (Homo sapiens (Human), UniProt Q96SW2+Q9UKS7); molecule O=C1CCC(N2Cc3c(ccc4c3OCC43CCN(Cc4ccc5ccn(Cc6cccnc6)c5c4)CC3)C2=O)C(=O)N1 (stereo not shown) 60 to 80%

----------
Measured on: IKZF2 (Homo sapiens (Human), UniProt Q96SW2+Q9UKS7)
Assay details: IKZF2 HiBiT Assay (Jurkat-IKZF2-HiBiT cell line)
Assay type: cell-based
Condition info: Jurkat-IKZF2-HiBiT cells, 24 hours; read-out: HiBit assay degradation analysis Dmax
Outcome measure: Dmax

Worked examples follow.
Molecule	Measurement
O=C1CCC(N2Cc3c(ccc4c3OCC43CCN(Cc4ccc(F)c5[nH]ncc45)CC3)C2=O)C(=O)N1 (centres unmarked)	40 to 60%
O=C1CCC(N2Cc3c(ccc4c3OCC43CCN(Cc4cccc(-n5cncn5)c4)CC3)C2=O)C(=O)N1 (centres unmarked)	40 to 60%
O=C1CC[C@H](N2Cc3c(ccc4c3OCC43CCN(Cc4ccc5cn(C(F)F)nc5c4)CC3)C2=O)C(=O)N1	60 to 80%
O=C1CCC(N2Cc3c(ccc4c3OCC43CCN(Cc4cnn(Cc5cccc(Cl)c5)c4)CC3)C2=O)C(=O)N1 (centres unmarked)	60 to 80%

Now consider the entry below.
Report Dmax, nothing else, for this molecule: Cc1ccc2[nH]ncc2c1CN1CCC2(CC1)COc1c2ccc2c1CN(C1CCC(=O)NC1=O)C2=O (centres unmarked) 60 to 80%

Entry source: patent US20250215012A1
